- SYSTEM: UniProt:P97639
- MEASUREMENT_NOTES: Radioligand binding assay at cloned rat MCH1 receptor ([3H] Compound A)
- Set-up: host or cells: Peak rapid 293 (Peakr293) cells, transient calcium phosphate transfection, membranes
- CONDITIONS: cloned rat MCH1 receptor; 0.08 nM [3H] Compound A; Peakr293 cell membranes; read-out: Ki (nM) rMCH1
Exercise: state measured log10 Ki for each of the compounds provided.
Hello, just confirming the data are log10 of Ki with units of nM.

Q: Identify measured log10 Ki associated with COc1ccc(OC(CCCCCN2CCC(c3cccc(NC(=O)C(C)C)c3)CC2)c2ccccc2F)cc1OC (stereo not drawn)
A: 1.62

Q: Fill in reported log10 Ki for this entry: "COc1ccc(-n2cc(CN3CCC(c4cccc(NC(=O)C(C)C)c4)CC3)c3ccccc32)cc1"
A: 1.37

Q: Answer with the recorded log10 Ki of "CC(C)C(=O)Nc1cccc(C2CCN(CCCCC(=O)c3ccc(F)cc3)CC2)c1" only.
A: 1.70

Q: Please report log10 Ki for the following compound: "Cc1cccc(-n2ccc3cccc(CN4CCC(c5cccc(NC(=O)C(C)C)c5)CC4)c32)c1C"
A: 2.23

Q: Please look at this compound and report its log10 Ki: "CCOC(=O)c1[nH]c2ccc(OC)cc2c1CN1CCC(c2cccc(NC(=O)C(C)C)c2)CC1"
A: 2.29

Q: Identify log10 Ki associated with the compound "CC(C)C(=O)Nc1cccc(C2CCN(CCCCCCNC(=O)c3cnn(-c4ccc([N+](=O)[O-])cc4)c3C(F)(F)F)CC2)c1"
A: 1.68

Q: Annotate the compound "O=C(Nc1cccc(C2CCN(Cc3cn(-c4ccccc4F)c4cc(Cl)ccc34)CC2)c1)C1CC1" with its measured log10 Ki.
A: 1.05

Q: Identify log10 Ki associated with the compound "CC(C)C(=O)Nc1cccc(C2CCN(CCCCNC(=O)c3cccc(Cl)c3)CC2)c1"
A: 1.89

Q: For the compound CC(=O)c1cccc(OC(CCCCN2CCC(c3cccc(NC(=O)C(C)C)c3)CC2)c2ccc(F)cc2)c1 (stereo not drawn) , give its reported log10 Ki.
A: 1.40

Q: In one line, give reported log10 Ki of the entry "Cc1cccc2c(CCCN3CCC(c4cccc(NC(=O)C(C)C)c4)CC3)c(-c3ccccc3Br)[nH]c12" .
A: 1.26

Q: Give log10 Ki for the following compound: "CC(C)C(=O)Nc1cccc(C2CCN(Cc3cccc4cc[nH]c34)CC2)c1"
A: 2.79

Q: Using the record for "CC(C)C(=O)Nc1cccc(C2CCN(CCC(c3ccccc3)c3ccccc3)CC2)c1" , state its measured log10 Ki.
A: 1.56

Q: Report measured log10 Ki; entry is "Cc1ccc2[nH]c(-c3cccc(Cl)c3)c(CCCN3CCC(c4cccc(NC(=O)C(C)C)c4)CC3)c2c1"
A: 0.53

Q: Consider the compound "CC(C)C(=O)Nc1cccc(C2CCN(CCCNC(=O)N3C(=O)OC[C@@H]3c3cc(F)c(F)c(F)c3)CC2)c1" and give its recorded log10 Ki.
A: 1.81

Q: Give log10 Ki for the following compound: "Cc1cccc2c(CCCN3CCC(c4cccc(NC(=O)C(C)C)c4)CC3)c(-c3ccc(F)cc3)[nH]c12"
A: 0.65

* * *

Exercise: state measured Ki for each of the compounds provided.
- SYSTEM: rat MCH-1 (Rattus norvegicus, UniProt P97639)
- Sequence (P97639 whole entry): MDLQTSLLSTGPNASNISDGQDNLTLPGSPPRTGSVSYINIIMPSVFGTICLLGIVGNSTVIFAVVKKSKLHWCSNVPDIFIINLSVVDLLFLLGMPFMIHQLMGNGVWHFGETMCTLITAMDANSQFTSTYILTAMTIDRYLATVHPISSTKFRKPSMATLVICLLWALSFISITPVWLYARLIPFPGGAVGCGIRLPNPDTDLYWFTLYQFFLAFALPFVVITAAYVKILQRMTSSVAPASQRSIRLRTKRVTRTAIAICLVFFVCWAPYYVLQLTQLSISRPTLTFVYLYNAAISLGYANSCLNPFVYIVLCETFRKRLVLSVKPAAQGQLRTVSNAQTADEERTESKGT
- MEASUREMENT_NOTES: Radioligand binding assay at cloned rat MCH1 receptor ([3H] Compound A)
- Design: host or cells: Peak rapid 293 (Peakr293) cells, transient calcium phosphate transfection, membranes
- CONDITIONS: cloned rat MCH1 receptor; 0.08 nM [3H] Compound A; Peakr293 cell membranes; read-out: Ki (nM) rMCH1
Kindly provide the numeric value in nM only, without the unit symbol.

Q: Annotate the compound "CC(C)C(=O)Nc1cccc(C2CCN(CCCc3c(-c4ccccc4Cl)[nH]c4ccc(OC(F)(F)F)cc34)CC2)c1" with its measured Ki.
A: 9.9

Q: Determine from records and report Ki for "CCC(=O)Nc1cccc(C2CCN(CCCC(=O)c3ccc(C(C)(C)C)cc3)CC2)c1"
A: 155

Q: Give the reported value of Ki for this record: "CC(C)C(=O)Nc1cccc(C2CCN(CCc3cccc4ccccc34)CC2)c1"
A: 311

Q: Fill in reported Ki for this entry: "O=C(Nc1cccc(C2CCN(Cc3c[nH]c4ccc(F)cc34)CC2)c1)C1CC1"
A: 664

Q: Please list Ki recorded for the compound "Cc1onc(-c2ccccc2)c1C(=O)NCCCN1CCC(c2cccc(NC(=O)C(C)C)c2)CC1"
A: 29.8

Q: Provide Ki value for the following compound: "CC(C)C(=O)Nc1cccc(C2CCN(CCCc3c(-c4cccc(I)c4)[nH]c4c3ccc3ccccc34)CC2)c1"
A: 12.2

Q: Return value of Ki for input "O=C(CCCN1CCC(c2cccc(NC(=O)C3CC3)c2)CC1)c1ccc(Br)cc1" , no commentary.
A: 16.2

Q: Quote Ki reported for CC(=O)c1cccc(OC(CCCCCN2CCC(c3cccc(NC(=O)C(C)C)c3)CC2)c2ccc(F)cc2)c1 (stereo not shown) please.
A: 3.7

Q: Respond only with Ki recorded for COc1ccc(OC(CCCCN2CCC(c3cccc(NC(=O)C(C)C)c3)CC2)c2ccc(F)cc2)cc1 (stereo not shown)
A: 29.3

Q: Hello, please tell me recorded Ki for this one: "CCC(=O)Nc1cccc(C2CCN(CCCCSc3ccccc3)CC2)c1"
A: 55.5

Q: Look up and state reported Ki for "Cc1ccccc1NC(=S)N[C@@H](CCN1CCC(c2cccc(NC(=O)C(C)C)c2)CC1)c1ccccc1"
A: 34.9

Q: Respond only with Ki recorded for "CC(C)C(=O)Nc1cccc(C2CCN(CCCc3c(-c4cccc([N+](=O)[O-])c4)[nH]c4c3ccc3ccccc34)CC2)c1"
A: 34.8

Q: State, in one line, measured Ki of "CC(C)C(=O)Nc1cccc(C2CCN(Cc3cn(-c4ccccc4)c4cc(F)ccc34)CC2)c1"
A: 4.6

Q: Using known records, supply Ki for CC(C)C(=O)Nc1cccc(C2CCN(CCCCCC(Oc3ccc(F)cc3)c3ccc(F)cc3)CC2)c1 (stereo not shown)
A: 6.4

Q: For the compound "CC(C)C(=O)Nc1cccc(C2CCN(CCNC(=O)c3ccc4ccccc4c3)CC2)c1" , give its reported Ki.
A: 21.1

Q: Look up and state reported Ki for "Cc1ccc2[nH]cc(CCCN3CCC(c4cccc(NC(=O)C(C)C)c4)CC3)c2c1"
A: 8.1

Q: Look up Ki of "O=C(Nc1cccc(C2CCN(Cc3cn(-c4ccccc4Cl)c4ccccc34)CC2)c1)C1CC1" and report it.
A: 27.4

Q: // Input: "CCOc1ccc(NC(=O)NCCCN2CCC(c3cccc(NC(=O)C(C)C)c3)CC2)cc1" . Output its Ki only.
A: 609

Q: Read the entry COc1ccc(OC(CCCCCN2CCC(c3cccc(NC(=O)C(C)C)c3)CC2)c2ccc(F)cc2)cc1 (stereo not shown) and write its reported Ki.
A: 3.1

Q: For "CC(C)C(=O)Nc1cccc(C2CCN(CCCc3c(-c4cccc(Br)c4)n(-c4ccccc4)c4ccccc34)CC2)c1" , write its Ki.
A: 6.9

Q: Please give measured Ki of the following entry: "CC(C)C(=O)Nc1cccc(C2CCN(CCCCNC(=O)Nc3ccc(-c4ccccc4)cc3)CC2)c1"
A: 129

Q: // fetch Ki given entry "CCC(=O)Nc1ccc(C2CCN(CCCCCCn3ccc4ccccc43)CC2)cc1"
A: 516

Q: State, in one line, measured Ki of "CC(C)C(=O)Nc1cccc(C2CCN(CCCc3c(-c4cccc(Cl)c4)[nH]c4c3ccc3ccccc34)CC2)c1"
A: 16.3

Q: Identify measured Ki corresponding to "CC(C)C(=O)Nc1cccc(C2CCN(CCCc3c(-c4ccc(I)cc4)n(-c4ccccc4)c4ccccc34)CC2)c1"
A: 161

Q: Determine from records and report Ki for "CCC(=O)Nc1cccc(C2CCN(Cc3ccc4c(c3)c3ccccc3n4CC)CC2)c1"
A: 12.1

Q: Give the measured Ki for "CC(C)C(=O)Nc1cccc(C2CCN(Cc3cn(-c4cccnc4)c4ccccc34)CC2)c1"
A: 29.4

Q: Provide measured Ki value, entry: "CC(C)C(=O)Nc1cccc(C2CCN(CCCCCCNC(=O)Nc3ccccc3)CC2)c1"
A: 259

Q: Identify measured Ki corresponding to "CCCC(=O)Nc1ccc(C2CCN(Cc3ccc4c(c3)c3ccccc3n4CC)CC2)cc1"
A: 109

Q: Please look at this compound and report its Ki: "CC(C)C(=O)Nc1cccc(C2CCN(CCCc3c(-c4cccc(I)c4)[nH]c4ccc(OC(F)(F)F)cc34)CC2)c1"
A: 2.8

Q: Provide one value: measured Ki of "Cc1cccc2c(CCN3CCC(c4cccc(NC(=O)C(C)C)c4)CC3)c[nH]c12"
A: 96.7

Q: For the compound "CC(C)C(=O)Nc1cccc(C2CCN(CCCc3c(-c4cccc(Cl)c4)n(C)c4ccccc34)CC2)c1" , give its measured Ki value.
A: 5
